Value source: paper PMC6827286

Molecular target: T1, colFD-NL
T1 chain: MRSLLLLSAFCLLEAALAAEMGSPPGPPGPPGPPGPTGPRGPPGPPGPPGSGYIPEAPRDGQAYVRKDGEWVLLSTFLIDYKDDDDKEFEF
Assay: BRET
Conditions: chain shown with the change; in the ER of HEK293 cells; n = 4; parent: est. 100; read off a plot
quantity kind: percent of parent (%)
Entry rule: numbers only, all in %.

Q: What value of percent of parent has been reported for the following binder? Hsp47-HT, P19324 Y353A (protein) AEVKKPLEAAAPGTAEKLSSKATTLAERSTGLAFSLYQAMAKDQAVENILLSPLVVASSLGLVSLGGKATTASQAKAVLSAEKLRDEEVHTGLGELLRSLSNSTARNVTWKLGSRLYGPSSVSFADDFVRSSKQHYNCEHSKINFRDKRSALQSINEWASQTTDGKLPEVTKDVERTDGALLVNAMFFKPHWDEKFHHKMVDNRGFMVTRSYTVGVTMMHRTGLYNYYDDEKEKLQMVEMPLAHKLSSLIILMPHHVEPLERLEKLLTKEQLKAWMGKMQKKAVAISLPKGVVEVTHDLQKHLAGLGLTEAIDKNKADLSRMSGKKDLYLASVFHATAFEWDTEGNPFDQDIAGREELRSPKLFYADHPFIFLVRDNQSGSLLFIGRLVRPKGDKMRDEL
Result: 84
